# Tested on: KM20L2
# PROTOCOL: Human cancer cell line growth inhibition, Colon KM20L2
# Type: cell-based
# TEST_CONDITIONS: KM20L2
Some molecules, each annotated with its measured Colon KM20L2 GI50.

>  <MOLECULE>
COc1ccc([C@H](O)[C@@H](O)c2cc(OC)c(OC)c(OC)c2)cc1O [(S,S)-4a]

>  <LT_GT_EQ>
=

>  <Colon KM20L2 GI50 / µg/mL>
0.52

$$$$
>  <MOLECULE>
COc1ccc([C@@H](O)[C@H](O)c2cc(OC)c(OC)c(OC)c2)cc1O [(R,R)-3a]

>  <LT_GT_EQ>
=

>  <Colon KM20L2 GI50 / µg/mL>
8.2

$$$$
>  <MOLECULE>
COc1ccc([C@H]2OCO[C@@H]2c2cc(OC)c(OC)c(OC)c2)c(O)c1O [(R,R)-10a]

>  <LT_GT_EQ>
>

>  <Colon KM20L2 GI50 / µg/mL>
10

$$$$
>  <MOLECULE>
COc1ccc([C@@H]2OCO[C@H]2c2cc(OC)c(OC)c(OC)c2)c(O)c1O [(S,S)-9a]

>  <LT_GT_EQ>
=

>  <Colon KM20L2 GI50 / µg/mL>
5.0

$$$$

----------
# System: BXPC-3
# PROTOCOL: Human cancer cell line growth inhibition, Pancreas-a BXPC-3
# Assay type: cell-based
Some compounds, each annotated with its measured Pancreas-a BXPC-3 GI50.

>  <COMPOUND>
COc1ccc([C@@H](O)[C@H](O)c2cc(OC)c(OC)c(OC)c2)cc1O [(R,R)-3a]

>  <LT_GT_EQ>
>

>  <Pancreas-a BXPC-3 GI50 [µg/mL]>
10

$$$$
>  <COMPOUND>
COc1ccc([C@H]2OCO[C@@H]2c2cc(OC)c(OC)c(OC)c2)c(O)c1O [(R,R)-10a]

>  <LT_GT_EQ>
>

>  <Pancreas-a BXPC-3 GI50 [µg/mL]>
10

$$$$
>  <COMPOUND>
COc1ccc([C@@H]2OCO[C@H]2c2cc(OC)c(OC)c(OC)c2)c(O)c1O [(S,S)-9a]

>  <LT_GT_EQ>
=

>  <Pancreas-a BXPC-3 GI50 [µg/mL]>
5.4

$$$$
>  <COMPOUND>
COc1ccc([C@H](O)[C@@H](O)c2cc(OC)c(OC)c(OC)c2)cc1O [(S,S)-4a]

>  <LT_GT_EQ>
=

>  <Pancreas-a BXPC-3 GI50 [µg/mL]>
3.9

$$$$

----------
# ASSAY_SYSTEM: tubulin (Bos taurus, UniProt P81947+Q6B856)
# Sequence (Q6B856 whole entry): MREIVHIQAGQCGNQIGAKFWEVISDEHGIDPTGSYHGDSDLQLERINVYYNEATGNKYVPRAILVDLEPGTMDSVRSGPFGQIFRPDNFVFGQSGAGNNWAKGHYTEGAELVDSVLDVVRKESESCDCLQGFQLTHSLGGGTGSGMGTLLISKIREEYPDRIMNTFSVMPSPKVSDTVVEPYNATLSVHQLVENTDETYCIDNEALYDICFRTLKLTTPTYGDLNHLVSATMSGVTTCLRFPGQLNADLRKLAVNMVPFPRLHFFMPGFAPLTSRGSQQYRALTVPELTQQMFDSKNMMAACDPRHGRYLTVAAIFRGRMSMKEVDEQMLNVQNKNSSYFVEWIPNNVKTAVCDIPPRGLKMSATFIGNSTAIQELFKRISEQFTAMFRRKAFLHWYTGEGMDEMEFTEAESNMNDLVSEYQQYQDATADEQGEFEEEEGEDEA
# Sequence (P81947 whole entry): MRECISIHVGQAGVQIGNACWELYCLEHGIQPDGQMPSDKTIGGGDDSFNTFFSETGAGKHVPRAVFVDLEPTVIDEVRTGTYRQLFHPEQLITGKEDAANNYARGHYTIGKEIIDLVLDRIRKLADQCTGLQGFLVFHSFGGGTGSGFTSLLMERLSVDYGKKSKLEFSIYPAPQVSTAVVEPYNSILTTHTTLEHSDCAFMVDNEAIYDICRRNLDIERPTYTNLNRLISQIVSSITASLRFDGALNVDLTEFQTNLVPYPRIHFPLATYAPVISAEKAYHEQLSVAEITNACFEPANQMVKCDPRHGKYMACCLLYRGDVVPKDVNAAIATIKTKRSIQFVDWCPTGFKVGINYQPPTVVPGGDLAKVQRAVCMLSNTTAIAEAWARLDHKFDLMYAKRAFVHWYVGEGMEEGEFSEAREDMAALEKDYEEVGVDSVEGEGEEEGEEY
# PROTOCOL: Inhibition of tubulin polymerization (assembly)
# Assay type: biochemical
# TEST_CONDITIONS: Table IV and text; read-out: Inhibition of Tubulin Assembly IC50 ± SD
REPORTED_ENDPOINT: IC50 (µM)

>  <MOLECULE>
COc1ccc([C@H]2OCO[C@@H]2c2cc(OC)c(OC)c(OC)c2)c(O)c1O [(R,R)-10a]

>  <ASSAY_SYSTEM>
tubulin (Bos taurus, UniProt P81947+Q6B856)

>  <REPORTED_ENDPOINT>
IC50

>  <EXPERIMENTAL_RESULT>
5.7

$$$$
>  <MOLECULE>
COc1ccc([C@@H]2OCO[C@H]2c2cc(OC)c(OC)c(OC)c2)c(O)c1O [(S,S)-9a]

>  <ASSAY_SYSTEM>
tubulin (Bos taurus, UniProt P81947+Q6B856)

>  <REPORTED_ENDPOINT>
IC50

>  <EXPERIMENTAL_RESULT>
0.59

$$$$

----------
# ASSAY_SYSTEM: tubulin (Bos taurus, UniProt P81947+Q6B856)
# PROTOCOL: Inhibition of tubulin polymerization (assembly)
# Type: biochemical
# TEST_CONDITIONS: Table II; tubulin concentration 10 μM; read-out: Inhibition of tubulin Polymerization IC50 ± SD
REPORTED_ENDPOINT: IC50 (µM)

>  <MOLECULE>
COc1ccc([C@H](O)[C@@H](O)c2cc(OC)c(OC)c(OC)c2)cc1O [(S,S)-4a]

>  <LT_GT_EQ>
=

>  <EXPERIMENTAL_RESULT>
14

$$$$
>  <MOLECULE>
COc1ccc([C@@H](O)[C@H](O)c2cc(OC)c(OC)c(OC)c2)cc1O [(R,R)-3a]

>  <LT_GT_EQ>
>

>  <EXPERIMENTAL_RESULT>
40

$$$$
